Measured abundance fitness, listed per entry for reference.
B1: Serine/threonine-protein kinase A-Raf, residues 21 to 89; numbered along this chain, P10398 (parent)
chain: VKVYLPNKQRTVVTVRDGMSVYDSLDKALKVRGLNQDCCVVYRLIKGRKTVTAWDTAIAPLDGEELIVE

# Variants of: B1
# protocol.details: abundance fitness (aPCA) (normalised: wild type 0, dead -1); higher = more abundant; growth selection in yeast, the domain comes from the species named
# run.conditions: Homo sapiens

Record P6C , field abundance fitness: -0.55

Record V15P , field abundance fitness: -0.257

Record D17I , field abundance fitness: -0.221

Record K46L , field abundance fitness: -0.437

Record L25G , field abundance fitness: -0.697

Further cases:
Record T52P , field abundance fitness: -1.04

Record T56A , field abundance fitness: 0.021
